# method-summary: self-splicing fitness, log relative to wild type (ln ratio); higher = more splicing; Tetrahymena group I intron in knt gene, E. coli kanamycin selection, DiMSum; sequences stand for … in CUCUCU…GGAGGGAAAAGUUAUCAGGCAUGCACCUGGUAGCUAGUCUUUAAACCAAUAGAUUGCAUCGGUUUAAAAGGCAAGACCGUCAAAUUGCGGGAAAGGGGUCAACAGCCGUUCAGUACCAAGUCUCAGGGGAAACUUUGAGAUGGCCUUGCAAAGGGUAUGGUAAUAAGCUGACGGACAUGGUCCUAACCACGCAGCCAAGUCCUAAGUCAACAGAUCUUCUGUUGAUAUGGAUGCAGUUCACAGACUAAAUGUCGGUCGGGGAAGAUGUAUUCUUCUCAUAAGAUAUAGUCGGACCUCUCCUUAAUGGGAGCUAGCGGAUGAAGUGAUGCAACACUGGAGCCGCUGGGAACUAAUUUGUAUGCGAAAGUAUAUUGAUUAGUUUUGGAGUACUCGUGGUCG;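 note: selection with 25 µg/mL kanamycin versus none on LB agar overnight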
# settings: 30 °C
self-splicing fitness (ln) below -3 gives 0; self-splicing fitness (ln) at or above it gives 1.

{"columns": ["seq-text", "qualitative-label"],
 "data": [
  ["GGCCAGCAAUAUUACGAAAA", 1],
  ["ACCUAGCAAUAUUACGCAUA", 1],
  ["UGUUAGCAAUAUUACGUACU", 1],
  ["CCUAAGCAAUAUUACGUGCC", 1],
  ["UCGUAGCAAUAUUACGAAGU", 0],
  ["CUGAAGCAAUAUUACGUAUC", 0],
  ["UGGUAGCAAUAUUACGCUGU", 0],
  ["UCCGAGCAAUAUUACGGCAG", 0],
  ["CAACAGCAAUAUUACGGGAU", 0],
  ["AUGAAGCAAUAUUACGUACA", 1],
  ["ACAUAGCAAUAUUACGUUGG", 0],
  ["GCUCAGCAAUAUUACGUAGC", 1],
  ["GGAAAGCAAUAUUACGAUCU", 0],
  ["GCCAAGCAAUAUUACGUUAA", 0],
  ["AUCCAGCAAUAUUACGUAGU", 1],
  ["AAAAAGCAAUAUUACGAAAC", 0],
  ["AACCAGCAAUAUUACGCAGG", 0],
  ["UUCAAGCAAUAUUACGCUCC", 1],
  ["GAAGAGCAAUAUUACGUUCU", 0],
  ["CCUCAGCAAUAUUACGUAGC", 0],
  ["AUACAGCAAUAUUACGCAGC", 0],
  ["AGGCAGCAAUAUUACGGUUA", 1],
  ["UGCAAGCAAUAUUACGUGGG", 0],
  ["CAGAAGCAAUAUUACGAGCG", 1],
  ["ACUUAGCAAUAUUACGCAAU", 0],
  ["CGCUAGCAAUAUUACGACAA", 1],
  ["GGGCAGCAAUAUUACGGGUU", 1],
  ["GAAAAGCAAUAUUACGUUCC", 0],
  ["AUGAAGCAAUAUUACGCAAG", 1],
  ["UACCAGCAAUAUUACGGAGA", 1],
  ["AUAUAGCAAUAUUACGCGUA", 1],
  ["CUAUAGCAAUAUUACGUAAG", 1],
  ["GGGCAGCAAUAUUACGGGAG", 0],
  ["CACAAGCAAUAUUACGCCCA", 1],
  ["UAUAAGCAAUAUUACGUCUA", 1],
  ["UUAGAGCAAUAUUACGUACG", 1],
  ["CGGAAGCAAUAUUACGCCCU", 1],
  ["CUCCAGCAAUAUUACGUCGC", 0],
  ["GGUCAGCAAUAUUACGAAUU", 1],
  ["AGGUAGCAAUAUUACGCGUG", 1],
  ["AUCAAGCAAUAUUACGACCA", 1],
  ["CCAUAGCAAUAUUACGAAGA", 0],
  ["GCUGAGCAAUAUUACGAACG", 1],
  ["UGCUAGCAAUAUUACGAUCA", 1],
  ["GUGCAGCAAUAUUACGCCUA", 1],
  ["GUAGAGCAAUAUUACGGUUA", 1],
  ["CACUAGCAAUAUUACGUUCU", 0],
  ["GGUCAGCAAUAUUACGAACG", 1],
  ["GACCAGCAAUAUUACGUGUU", 0],
  ["UGAGAGCAAUAUUACGACGG", 1],
  ["CCUUAGCAAUAUUACGAAGG", 0],
  ["CAACAGCAAUAUUACGCCGG", 1],
  ["AAUUAGCAAUAUUACGGUGA", 1],
  ["CGGUAGCAAUAUUACGGCAC", 1],
  ["AGAAAGCAAUAUUACGAACC", 1],
  ["AGAAAGCAAUAUUACGUAAA", 1],
  ["UCAUAGCAAUAUUACGGACU", 1],
  ["UUACAGCAAUAUUACGAGGA", 1],
  ["GCUCAGCAAUAUUACGCGGC", 0],
  ["AAAGAGCAAUAUUACGGGGG", 1],
  ["GGUUAGCAAUAUUACGCGGU", 1],
  ["ACGUAGCAAUAUUACGUCUG", 1],
  ["GCGGAGCAAUAUUACGAGGA", 1],
  ["CGUCAGCAAUAUUACGUACU", 1]
]}
